- experiment-description: chemical genetic growth profiling, strain panel (AID 1159580);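 note: tested at 20 µM; growth read once vehicle control cultures reached saturation at 30 °C; 1 = growth at the plate median or of vehicle wells; lower values mean less growth of the strain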
- applied-conditions: S. cerevisiae deletion strains, growth OD, locus YNL250W, strain rad50, active compounds read low
Hit rate of the full screen: of about 5,500 compounds, about 2,000 (36%) were called active. Another 18% or so got no clear call; they are omitted. Some of the results follow.
Listed molecules paired with reported normalized growth
assay-readout: normalized growth

molecule	value-reported
CN(C)CCOC(c1ccc(Cl)cc1)c1ccccn1 (centres undefined)	1.02
COC(=O)C[C@H]1C2(C)CC34OC5(C)O[C@@]6([C@H](OC)C(OC(=O)C(C)C)[C@]7(C)C(/C(=C(/OC)C(C)C)C(=O)O[C@H]7c7ccoc7)[C@@]6(O5)[C@H](OC)[C@@]3(OC)C2OC(C)=O)[C@]14C (some centres undefined)	1.04
Clc1ccc(C(OCCN2CCCCC2)c2ccccc2)cc1 (centres undefined)	0.991
O=C1NCC2(CCN(CCc3ccccc3)CC2)O1	1
CC[C@@H](C(=O)C(C)[C@@H](O)[C@H](C)CCc1ccc(C)c(O)c1C(=O)O)C1OC(CC)(C2CC[C@](O)(CC)[C@H](C)O2)C[C@@H]1C (some centres undefined)	0.997
CC[C@H]1OC(=O)[C@H](C)[C@@H](O[C@H]2C[C@@](C)(OC)[C@@H](O)[C@H](C)O2)[C@H](C)[C@@H](O[C@@H]2O[C@H](C)C[C@H](N(C)C)[C@H]2O)[C@](C)(OC)C[C@@H](C)C(=O)[C@H](C)[C@@H](O)[C@]1(C)O	1
O=S(=O)(O)CCS	0.987
COc1ccc(OC)c(C(O)CNC(=O)CN)c1 (centres undefined)	0.968
CNC(=O)O/N=C(\C)SC	0.974
